Entry source: paper PMC12155096

- ASSAY_SYSTEM: human CYP2D6 (Homo sapiens, UniProt P10635)
- Sequence (P10635 whole entry): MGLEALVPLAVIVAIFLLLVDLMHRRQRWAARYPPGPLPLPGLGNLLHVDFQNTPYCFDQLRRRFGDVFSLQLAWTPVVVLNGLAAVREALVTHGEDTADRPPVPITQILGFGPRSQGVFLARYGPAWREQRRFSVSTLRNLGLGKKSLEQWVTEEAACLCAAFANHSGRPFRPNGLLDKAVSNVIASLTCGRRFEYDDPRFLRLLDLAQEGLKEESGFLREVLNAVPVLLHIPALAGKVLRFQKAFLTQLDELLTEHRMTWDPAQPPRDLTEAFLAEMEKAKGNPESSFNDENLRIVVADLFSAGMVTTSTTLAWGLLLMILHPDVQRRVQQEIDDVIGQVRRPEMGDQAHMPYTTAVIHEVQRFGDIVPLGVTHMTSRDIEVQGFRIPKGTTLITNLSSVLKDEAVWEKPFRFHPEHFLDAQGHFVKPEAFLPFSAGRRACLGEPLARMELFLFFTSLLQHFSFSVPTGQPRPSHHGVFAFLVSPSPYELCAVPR
- EXPERIMENTAL_CONDITIONS: human

- COMPOUND: "CCNP(=S)(OC)O/C(C)=C/C(=O)OC(C)C (stereo not drawn) [Propetamphos]"
  CYP2D6 Efficacy (in parenthesis): "28.38 ± 3.26 (-120 ± 4) %"
- COMPOUND: "O=C1c2ccccc2C(=O)C1C(=O)C(c1ccccc1)c1ccccc1 [Diphacinone]"
  CYP2D6 Efficacy (in parenthesis): "32.29 ± 4.12 (-49 ± 4) %"
- COMPOUND: "COP(=S)(Oc1cc(Cl)c(Br)cc1Cl)c1ccccc1 (stereo not drawn) [Leptophos]"
  CYP2D6 Efficacy (in parenthesis): "89.36 ± 0 (-42 ± 11) %"
- COMPOUND: "CCCCC(C#N)(Cn1cncn1)c1ccc(Cl)cc1 (stereo not drawn) [Myclobutanil]"
  CYP2D6 Efficacy (in parenthesis): "49.32 ± 12.32 (-38 ± 7) %"
- COMPOUND: "CN(C)C(=O)Nc1ccc(Cl)c(Cl)c1 [Diuron]"
  CYP2D6 Efficacy (in parenthesis): "42.09 ± 18.16 (-73 ± 17) %"
- COMPOUND: "COc1c2occc2cc2ccc(=O)oc12 [8-Methoxypsoralen]"
  CYP2D6 Efficacy (in parenthesis): "7.42 ± 0.95 (-106 ± 2) %"
- COMPOUND: "CCCN(CCc1cccs1)[C@H]1CCc2c(O)cccc2C1 [Rotigotine]"
  CYP2D6 Efficacy (in parenthesis): "0.4 ± 0.09 (-102 ± 0) %"
- COMPOUND: "CC[N+](CC)(CC(=O)Nc1c(C)cccc1C)Cc1ccccc1 [Denatonium benzoate]"
  CYP2D6 Efficacy (in parenthesis): "0.01 ± 0 (-107 ± 7) %"
- COMPOUND: "CC(C)[N+](C)(CCC(C(N)=O)(c1ccccc1)c1ccccc1)C(C)C [Isopropamide]"
  CYP2D6 Efficacy (in parenthesis): "0.7 ± 0.32 (-99 ± 8) %"

---

- ASSAY_SYSTEM: human CYP2C19 (Homo sapiens)
- Sequence (P33261 whole entry): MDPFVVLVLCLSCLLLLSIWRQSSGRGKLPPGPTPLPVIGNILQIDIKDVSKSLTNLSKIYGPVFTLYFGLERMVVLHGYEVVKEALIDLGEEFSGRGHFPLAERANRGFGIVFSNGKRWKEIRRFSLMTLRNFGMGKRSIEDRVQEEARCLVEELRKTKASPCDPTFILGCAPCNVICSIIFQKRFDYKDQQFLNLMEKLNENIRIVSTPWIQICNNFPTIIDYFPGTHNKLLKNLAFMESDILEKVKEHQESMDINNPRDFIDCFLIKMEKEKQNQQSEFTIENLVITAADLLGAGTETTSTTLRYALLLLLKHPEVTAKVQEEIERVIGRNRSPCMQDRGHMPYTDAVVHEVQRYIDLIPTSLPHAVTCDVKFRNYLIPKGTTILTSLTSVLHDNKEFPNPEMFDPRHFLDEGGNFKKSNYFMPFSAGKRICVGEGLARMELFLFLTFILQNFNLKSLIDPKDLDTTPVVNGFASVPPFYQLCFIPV
- ASSAY_COMMENT: biochemical
Reported AC50 by item:

- COMPOUND: "CCOC(=O)COC(=O)c1ccccc1C(=O)OCC [Ethyl phthalyl ethyl glycolate]"
  ASSAY_SYSTEM: "human CYP2C19 (Homo sapiens)"
  UNIT_ABBREV: "µM"
  AC50: 20.8
- COMPOUND: "CCCCOC(=O)CCCCC(=O)OCCCC [Dibutyl hexanedioate]"
  ASSAY_SYSTEM: "human CYP2C19 (Homo sapiens)"
  UNIT_ABBREV: "µM"
  AC50: 57.6
- COMPOUND: "COc1ccccc1OC(=O)Oc1ccccc1OC [Guaiacol carbonate]"
  ASSAY_SYSTEM: "human CYP2C19 (Homo sapiens)"
  UNIT_ABBREV: "µM"
  AC50: 9.77
- COMPOUND: "O=C(OCCc1ccccc1)c1ccccc1 [2-Phenylethyl benzoate]"
  ASSAY_SYSTEM: "human CYP2C19 (Homo sapiens)"
  UNIT_ABBREV: "µM"
  AC50: 13.5
- COMPOUND: "NNS(=O)(=O)c1ccc(Oc2ccc(S(=O)(=O)NN)cc2)cc1 [4,4'-Oxybis(benzenesulfonhydrazide)]"
  ASSAY_SYSTEM: "human CYP2C19 (Homo sapiens)"
  UNIT_ABBREV: "µM"
  AC50: 16.8
- COMPOUND: "CCCN(CCc1cccs1)[C@H]1CCc2c(O)cccc2C1"
  ASSAY_SYSTEM: "human CYP2C19 (Homo sapiens)"
  UNIT_ABBREV: "µM"
  AC50: 2.55
- COMPOUND: "CC(C)(C)c1ccc(OC(=O)c2ccccc2O)cc1 [4-tert-Butylphenyl salicylate]"
  ASSAY_SYSTEM: "human CYP2C19 (Homo sapiens)"
  UNIT_ABBREV: "µM"
  AC50: 14.2
- COMPOUND: "CCN(CC)c1ccc(C=O)cc1"
  ASSAY_SYSTEM: "human CYP2C19 (Homo sapiens)"
  UNIT_ABBREV: "µM"
  AC50: 14.3
- COMPOUND: "O=C(c1ccc(O)cc1)c1ccc(O)cc1"
  ASSAY_SYSTEM: "human CYP2C19 (Homo sapiens)"
  UNIT_ABBREV: "µM"
  AC50: 31.8

---

Reported AC50 by item:
- ASSAY_SYSTEM: human CYP1A2 (Homo sapiens, UniProt P05177)
- Sequence (P05177 1-516): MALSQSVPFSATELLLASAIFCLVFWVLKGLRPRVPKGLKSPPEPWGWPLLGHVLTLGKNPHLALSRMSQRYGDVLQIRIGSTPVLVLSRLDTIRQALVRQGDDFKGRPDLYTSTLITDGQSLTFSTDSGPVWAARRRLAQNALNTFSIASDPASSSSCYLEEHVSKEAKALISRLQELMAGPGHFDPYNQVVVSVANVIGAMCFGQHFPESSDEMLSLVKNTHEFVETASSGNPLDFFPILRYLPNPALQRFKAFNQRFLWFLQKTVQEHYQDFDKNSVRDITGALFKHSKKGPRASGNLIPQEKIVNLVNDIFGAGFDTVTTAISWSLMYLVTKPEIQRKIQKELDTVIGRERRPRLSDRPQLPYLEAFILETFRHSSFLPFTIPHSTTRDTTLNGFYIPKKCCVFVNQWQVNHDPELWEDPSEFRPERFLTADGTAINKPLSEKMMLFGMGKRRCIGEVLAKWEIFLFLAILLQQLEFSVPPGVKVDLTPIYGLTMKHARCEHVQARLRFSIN

- MOLECULE: "CCCCCCCCCCCCCOP(=O)(O)O [Monotridecyl phosphate]"
  UNIT_ABBREV: "µM"
  AC50: 65.1
- MOLECULE: "CCOC(=O)N1CCC(n2c(=O)[nH]c3cc(Cl)ccc32)CC1"
  UNIT_ABBREV: "µM"
  AC50: 22.6
- MOLECULE: "Cl.O.c1cnc2c(c1)ccc1cccnc12"
  UNIT_ABBREV: "µM"
  AC50: 10.6
- MOLECULE: "CCOC(=O)COc1ccc(Cl)cc1Cl"
  UNIT_ABBREV: "µM"
  AC50: 30.8
- MOLECULE: "BrCc1cccc(Oc2ccccc2)c1"
  UNIT_ABBREV: "µM"
  AC50: 41.5
- MOLECULE: "O=C(C=Cc1ccccc1)OCCCc1ccccc1 [3-Phenylpropyl cinnamate]"
  UNIT_ABBREV: "µM"
  AC50: 12.2
- MOLECULE: "CC(C)c1ccc2sc3ccccc3c(=O)c2c1"
  UNIT_ABBREV: "µM"
  AC50: 7.68
- MOLECULE: "CCOC(=O)c1ccc(N(C)C)cc1 [Parbenate]"
  UNIT_ABBREV: "µM"
  AC50: 4.68
- MOLECULE: "O=C(OCCOCCOCCOC(=O)c1ccccc1)c1ccccc1 [Triethylene glycol dibenzoate]"
  UNIT_ABBREV: "µM"
  AC50: 17.8
- MOLECULE: "CCOC(=O)CC(=O)Cc1cc(F)c(Cl)nc1Cl"
  UNIT_ABBREV: "µM"
  AC50: 65.1
- MOLECULE: "O=C(c1ccc(O)cc1)c1ccc(O)cc1O [2,4,4'-Trihydroxybenzophenone]"
  UNIT_ABBREV: "µM"
  AC50: 34.3
- MOLECULE: "C/C=C(\\C)C(=O)OCc1ccccc1 [Benzyl tiglate]"
  UNIT_ABBREV: "µM"
  AC50: 37
- MOLECULE: "CCN(CC)c1ccc2c(C)cc(=O)oc2c1"
  UNIT_ABBREV: "µM"
  AC50: 1.9
- MOLECULE: "C=C(C)C(=O)OCC(O)COc1ccc(C(C)(C)c2ccc(OCC(O)COC(=O)C(=C)C)cc2)cc1 (stereo not shown) [Bisphenol A glycidyl methacrylate]"
  UNIT_ABBREV: "µM"
  AC50: 63.5
- MOLECULE: "CCCCN1C(=O)c2ccccc2C1=O"
  UNIT_ABBREV: "µM"
  AC50: 2.03
- MOLECULE: "O=C(c1ccc(O)c(O)c1)c1ccc(O)cc1O [2,3',4,4'-Tetrahydroxybenzophenone]"
  UNIT_ABBREV: "µM"
  AC50: 34.3
- MOLECULE: "CC(C)C(=O)OCCOc1ccccc1 [Phenoxyethyl isobutyrate]"
  UNIT_ABBREV: "µM"
  AC50: 31.9
- MOLECULE: "CC(C)NC(=O)c1ccccc1N [2-Amino-N-(1-methylethyl)benzamide]"
  UNIT_ABBREV: "µM"
  AC50: 51.1
- MOLECULE: "O=C(OCCCCCCOC(=O)c1ccccc1)c1ccccc1 [Hexane-1,6-diyl dibenzoate]"
  UNIT_ABBREV: "µM"
  AC50: 3.43

---

System: CYP3A4 (Homo sapiens, UniProt P08684) | Read-out: IC50
Sequence (P08684 whole entry): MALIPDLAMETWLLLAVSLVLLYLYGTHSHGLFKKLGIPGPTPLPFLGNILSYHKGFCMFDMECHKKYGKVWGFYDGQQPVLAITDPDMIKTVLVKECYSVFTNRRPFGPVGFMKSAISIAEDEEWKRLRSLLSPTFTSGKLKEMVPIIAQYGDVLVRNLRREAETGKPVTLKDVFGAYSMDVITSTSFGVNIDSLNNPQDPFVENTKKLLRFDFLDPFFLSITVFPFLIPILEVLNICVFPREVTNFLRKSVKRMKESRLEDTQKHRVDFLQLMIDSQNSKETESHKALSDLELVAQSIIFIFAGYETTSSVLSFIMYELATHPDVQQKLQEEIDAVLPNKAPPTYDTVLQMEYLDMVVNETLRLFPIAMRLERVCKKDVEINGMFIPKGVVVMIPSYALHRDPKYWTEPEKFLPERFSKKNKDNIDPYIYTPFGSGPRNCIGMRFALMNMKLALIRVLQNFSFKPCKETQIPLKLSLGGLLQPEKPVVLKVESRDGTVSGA

- MOLECULE: "CC(=O)[O-].CC(=O)[O-].[Hg+2] [Mercury(II) acetate]"
  IC50 / nM: 2860
- MOLECULE: "[I][Hg][I] [Mercury(II) iodide]"
  IC50 / nM: 2530
- MOLECULE: "CC(=O)/C=C/c1ccc2c(c1)OCO2"
  IC50 / nM: 4650
- MOLECULE: "CC(=O)[O][Sn]([c]1ccccc1)([c]1ccccc1)[c]1ccccc1 [Triphenyltin acetate]"
  IC50 / nM: 8450
- MOLECULE: "[Cl][Bi]([Cl])([c]1ccccc1)([c]1ccccc1)[c]1ccccc1 [Triphenylbismuthine dichloride]"
  IC50 / nM: 15000
- MOLECULE: "CC(C)CC(N(C)C)C1(c2ccc(Cl)cc2)CCC1.Cl (stereo not shown) [Sibutramine hydrochloride]"
  IC50 / nM: 940
- MOLECULE: "CC(C)C[C@H]1[C@@H](c2ccccc2)OC(=O)N1CCCN1CCCCCC1.Cl [Ipenoxazone hydrochloride]"
  IC50 / nM: 880
- MOLECULE: "CC(=O)O.CC(C)c1ccc2c(c1)CC[C@H]1[C@](C)(CN)CCC[C@]21C [Dehydroabietylamine acetate]"
  IC50 / nM: 410
- MOLECULE: "O=S(=O)(O)C(F)(F)C(F)(F)C(F)(F)C(F)(F)C(F)(F)C(F)(F)C(F)(F)C(F)(F)F"
  IC50 / nM: 80000
- MOLECULE: "COc1ccc(OC)c(N=Nc2c(O)ccc3ccccc23)c1"
  IC50 / nM: 2790
- MOLECULE: "CN1[C@@H]2CCC(C)(C)[C@H]1C[C@H](OC(=O)C(O)(c1cccs1)c1cccs1)C2"
  IC50 / nM: 220
- MOLECULE: "Cc1cc(-c2cc(C)c(N)c(C)c2)cc(C)c1N"
  IC50 / nM: 28100
- MOLECULE: "c1cc(CCCc2ccncc2)ccn1"
  IC50 / nM: 870
- MOLECULE: "Cl.Clc1ccc(Cn2c(CN3CCCC3)nc3ccccc32)cc1 [Clemizole hydrochloride]"
  IC50 / nM: 6240
- MOLECULE: "CCCCCCCCCCCCCCCCCC[N+](C)(C)Cc1ccccc1.[Cl-]"
  IC50 / nM: 45800
- MOLECULE: "CCCCCCCC[P+](CCCCCCCC)(CCCCCCCC)CCCCCCCC.[Br-] [Tetraoctylphosphonium bromide]"
  IC50 / nM: 1730
